experiment: Oral bioavailability in BALB/c mouse at 5 mg/kg; format: ADME, organism-based; details: in vivo
quantity-measured: bioavailability
Write the quantity with the unit trailing the number.

Look at this compound and give its reported bioavailability. COc1ccc(-c2nc3c(N4CCN(Cc5cc(C)on5)CC4)c(Br)cnc3[nH]2)cc1
23%

Look at this compound and give its reported bioavailability. Brc1cnc2[nH]c(-c3ccc(CN4CCOCC4)cc3)nc2c1N1CCN(Cc2cccnc2)CC1
13%

---

assay: Metabolic stability in CD1 mouse liver microsomes assessed as compound remaining at 10 uM after 30 mins by LC-MS/MS analysis; assay type: ADME, Microsome; settings: read-out: Stability
Please respond with reported remaining at 0.5 h, 10 µM for every item in the list.

Look at this compound and give its reported remaining at 0.5 h, 10 µM. Cc1cc(CN2CCN(c3c(Br)cnc4nc(-c5ccc(CN(C)C)cc5)[nH]c34)CC2)no1
> 50%

Look at this compound and give its reported remaining at 0.5 h, 10 µM. COc1ccc(-c2nc3c(N4CCN(Cc5cscn5)CC4)c(Br)cnc3[nH]2)cc1
45%

Look at this compound and give its reported remaining at 0.5 h, 10 µM. Cc1cc(CN2CCN(c3c(Br)cnc4[nH]c(-c5ccc(CN)cc5)nc34)CC2)no1
> 50%

Look at this compound and give its reported remaining at 0.5 h, 10 µM. COc1ccc(-c2nc3c(N4CCN(Cc5cc(C)on5)CC4)c(Br)cnc3[nH]2)cc1
> 50%

Look at this compound and give its reported remaining at 0.5 h, 10 µM. Cc1cc(CN2CCN(c3c(Cl)cnc4nc(-c5ccc(OCCO)cc5)[nH]c34)CC2)no1
> 50%

Look at this compound and give its reported remaining at 0.5 h, 10 µM. Cc1cc(CN2CCN(c3c(Br)cnc4[nH]c(-c5ccc(N6CCNCC6)cc5)nc34)CC2)no1
> 50%

Look at this compound and give its reported remaining at 0.5 h, 10 µM. Cc1cc(CN2CCN(c3c(Br)cnc4nc(-c5ccc(CN6CCNCC6)cc5)[nH]c34)CC2)no1
> 50%

Look at this compound and give its reported remaining at 0.5 h, 10 µM. Cc1cc(CN2CCN(c3c(Cl)cnc4nc(-c5ccc(CN)cc5)[nH]c34)CC2)no1
> 50%

Look at this compound and give its reported remaining at 0.5 h, 10 µM. Cc1cc(CN2CCN(c3c(Br)cnc4[nH]c(-c5ccc(OCCO)cc5)nc34)CC2)no1
> 50%

---

target: hERG (KCNH2) (Homo sapiens, UniProt Q12809); test: Inhibition of human ERG at 10 uM
Sequence (Q12809 whole entry): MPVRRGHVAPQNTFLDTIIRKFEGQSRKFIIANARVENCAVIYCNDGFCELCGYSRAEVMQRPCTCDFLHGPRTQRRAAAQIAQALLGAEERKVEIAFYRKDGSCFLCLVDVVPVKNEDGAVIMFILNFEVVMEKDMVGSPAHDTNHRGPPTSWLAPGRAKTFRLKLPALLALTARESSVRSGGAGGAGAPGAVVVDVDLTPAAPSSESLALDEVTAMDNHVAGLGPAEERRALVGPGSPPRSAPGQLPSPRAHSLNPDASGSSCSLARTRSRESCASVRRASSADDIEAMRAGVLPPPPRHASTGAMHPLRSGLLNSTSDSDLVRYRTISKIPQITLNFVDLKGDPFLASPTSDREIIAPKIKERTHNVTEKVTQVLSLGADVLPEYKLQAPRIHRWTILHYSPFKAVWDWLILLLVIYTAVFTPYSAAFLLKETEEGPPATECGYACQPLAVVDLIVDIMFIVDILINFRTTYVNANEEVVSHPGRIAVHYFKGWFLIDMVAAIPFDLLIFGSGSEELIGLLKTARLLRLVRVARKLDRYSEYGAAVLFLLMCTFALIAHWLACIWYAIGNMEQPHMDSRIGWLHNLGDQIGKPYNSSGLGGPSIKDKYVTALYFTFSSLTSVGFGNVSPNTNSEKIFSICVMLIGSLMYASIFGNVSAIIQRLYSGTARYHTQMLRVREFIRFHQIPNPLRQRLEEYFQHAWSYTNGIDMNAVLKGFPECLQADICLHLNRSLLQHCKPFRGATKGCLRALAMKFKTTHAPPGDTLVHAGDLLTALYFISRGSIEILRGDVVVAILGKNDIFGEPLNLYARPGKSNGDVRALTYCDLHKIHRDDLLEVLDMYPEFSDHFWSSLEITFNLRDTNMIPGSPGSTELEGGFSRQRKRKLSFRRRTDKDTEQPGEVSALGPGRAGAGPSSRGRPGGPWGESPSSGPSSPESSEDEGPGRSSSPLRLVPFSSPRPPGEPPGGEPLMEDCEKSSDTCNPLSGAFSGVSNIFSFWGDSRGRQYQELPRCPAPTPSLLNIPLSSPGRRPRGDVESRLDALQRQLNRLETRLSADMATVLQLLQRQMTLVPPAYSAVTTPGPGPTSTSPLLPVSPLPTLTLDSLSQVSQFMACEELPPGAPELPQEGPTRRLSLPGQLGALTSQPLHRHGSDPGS
quantity-measured: inhibition at 10 µM (%)
Could you give me the number in %? Just the number is fine.

Return inhibition at 10 µM measured with hERG (KCNH2) (Homo sapiens, UniProt Q12809) given this molecule: Clc1ccc(CN2CCN(c3c(Br)cnc4[nH]c(-c5ccc(CN6CCOCC6)cc5)nc34)CC2)cc1
53

---

biological target: Aurora kinase A (Homo sapiens, UniProt O14965)
Sequence (O14965 whole entry): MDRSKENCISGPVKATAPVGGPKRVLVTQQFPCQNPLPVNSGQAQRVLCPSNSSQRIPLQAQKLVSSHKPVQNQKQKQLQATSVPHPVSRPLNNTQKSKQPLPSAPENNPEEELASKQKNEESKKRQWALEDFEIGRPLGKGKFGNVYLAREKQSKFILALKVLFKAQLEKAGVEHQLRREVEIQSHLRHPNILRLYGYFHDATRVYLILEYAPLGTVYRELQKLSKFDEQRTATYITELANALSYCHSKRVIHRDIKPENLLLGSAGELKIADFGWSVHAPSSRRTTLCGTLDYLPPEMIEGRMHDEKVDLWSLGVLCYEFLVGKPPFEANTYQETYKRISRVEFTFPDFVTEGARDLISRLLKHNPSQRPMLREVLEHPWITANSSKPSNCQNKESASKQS
quantity-measured: pIC50
In simple prose, pIC50 is minus the logarithm base ten of a concentration in moles per litre.

Look at this compound and give its reported pIC50. COc1ccc(-c2nc3c(N4CCN(CC(=O)Nc5nccs5)CC4)c(Cl)cnc3[nH]2)cc1
7.28

Look at this compound and give its reported pIC50. Brc1cnc2[nH]c(-c3ccc(CN4CCOCC4)cc3)nc2c1N1CCN(Cc2cncnc2)CC1
8.22

Look at this compound and give its reported pIC50. Cc1cc(CN2CCN(c3c(Br)cnc4[nH]c(-c5ccc(CN)cc5)nc34)CC2)no1
8.00

Look at this compound and give its reported pIC50. CN(C)Cc1ccc(-c2nc3c(N4CCN(CC(=O)Nc5nccs5)CC4)c(Br)cnc3[nH]2)cc1
7.80

Look at this compound and give its reported pIC50. Cc1cc(CN2CCN(c3c(Cl)cnc4nc(-c5ccc(OCCO)cc5)[nH]c34)CC2)no1
7.70

Look at this compound and give its reported pIC50. COc1ccc(-c2nc3c(N4CCN(Cc5cccnc5)CC4)c(Br)cnc3[nH]2)cc1
8.05

Look at this compound and give its reported pIC50. Cn1ccnc1CN1CCN(c2c(Br)cnc3[nH]c(-c4ccc(CN5CCOCC5)cc4)nc23)CC1
7.52

Look at this compound and give its reported pIC50. CC(C)CN1CCN(c2c(Br)cnc3[nH]c(-c4ccc(N(C)C)cc4)nc23)CC1
6.68

Look at this compound and give its reported pIC50. Cc1cc(CN2CCN(c3c(Br)cnc4nc(-c5ccc(CN6CCNCC6)cc5)[nH]c34)CC2)no1
8.00

Look at this compound and give its reported pIC50. COc1ccc(-c2nc3c(N4CCN(Cc5nccn5C)CC4)c(Br)cnc3[nH]2)cc1
7.49
